Overview of reported protein stability index across a group of sequences:
- protocolNotes: protein stability index of a GFP-peptide fusion (GPS, HEK-293T) (PSI 1-6); higher = more stable;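 further: 24-mer peptide tiles fused after GFP, lentivirally expressed, FACS-sorted into six equal bins by GFP/DsRed ratio, decoded by Illumina sequencing, PSI is the read-weighted mean bin number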
- conditionContext: treatment: DMSO; c terminus: a fixed tail appended

sequenceData	protein stability index
VLRTYLELVLCVLVSIRNNRNLQK [FBXO33]	2.96
IIYPRQQLLTLRELEMIGFIENNV [TRIP13]	2.6
QLKWASWELHSLRHCDDDGRTENG [ZNF24]	3.83
RDRFKSFQRRNMIEPRERAKFKRK [NOP53]	4.11
LYFKDKIFNVAIPRFHMACPTFRV [FBXO3]	2.98
HSPFSSESRALSTSSNLGSQYQCE [TBX5]	4.4
GQLEFRALLFIPRRAPFDLFENKK [HSP90AB1]	2.22
SFFLQIYLIMIFLGLYINFRHLYK [HACD3]	2.79
TPPTTTAEIATASASASTTTTVTA [SNAP91]	5.39
QPKQLIVDDLKGSLKEDLTQHKFI [SPRY1]	4.14
APAASEGAAAPATPTPVAAALDAC [SNAP91]	5.32
NWLHRRLAGQFLEELRKFSSLCYK [MOG]	2.5
IFLYARPNSTFPIDKSMTVVLTFI [OR4A15]	2.84

---

- protocolNotes: protein stability index of a GFP-peptide fusion (GPS, HEK-293T) (PSI 1-6); higher = more stable
- conditionContext: treatment: DMSO; c terminus: native
# label = bin(measured protein stability index), where bins are c1: < 3; c2: ≥ 3 and < 4; c3: ≥ 4

sequenceData	classAssignment
GKGDDSETDKNNCSNAKAVETDV [KCNA4]	c3
HRPSTLQAASTPQAEEDWTCTIL [OAS1]	c3
TLTVFPPEETTPSPSRESPLSAP [KLHL13]	c3
RRPRRVEAERPHSLIGVIRETVL [FAM189A2]	c2
ARRQWRDECLMRLAKLKSQVQPQ [CRYL1]	c1
SIIILLELAILGGLVYYKFFRSH [VTI1B]	c1
HVLALGLGIYIGKRLSTPSASTY [BNIP3L]	c2
NDPSQSEVMGEPHLMVEYKLGLL [POMP]	c3
VRANDINYQDQIPRTLEEFVGFH [FEM1B]	c2
HRRDGKWQNVHFHCSGAPVAPLQ [CAMK2B]	c1
DPHTKKALEAHCRADELASQDGR [PPP2R5C]	c3

---

Quick reference for protein stability index among some sequences
- protocolNotes: protein stability index of a GFP-peptide fusion (GPS, HEK-293T) (PSI 1-6); higher = more stable
- conditionContext: treatment: DMSO; c terminus: a fixed tail appended

sequenceData	protein stability index
CTDFCLRNLDGTLGYLLDKETLRL [ZER1]	2
TQSDEENGRACEMNGEECAEDLRM [IKZF1]	5.66
LEEKDRVLKKQDAFYKEQLARLEE [CHCHD3]	5.04
PTLWTEQVKSRQNKTNKNSVSSCD [SMOC2]	4.81
GIPGWGFSGWISALVVPKGNTAVS [SCAMP3]	2.78
EAKEAKGSGYEKLGPSRDPDPLNI [RTP4]	4.9
ALKERADSLAKEIQYLKDLIEEVR [ATF4]	4.49
SGISFPSVVDHPMPEERASKYENY [HESX1]	4.25
ELFRLRGIKAQVALRLAELARRRR [NOP53]	2.36
HEVREFKQLIYRVRRTDDTPVVLV [RIT1]	2.2
GPLAETTEDFWRMLWEHNSTIVVM [PTPRD]	2.48
SHRAAGSGVSDYDYLDLDKMSLYS [TRIM9]	3.4
REEEERERLQKEEEKRRREEEERL [ACBD3]	5.5
SLSVRHRQVKHYRIFRLPNNWYYI [SLA]	2.29
ALVIMWQKHYVYGPLPQSFDKEWV [COX4I1]	2.88
EMETLETSTKTDSEEGSWAQTLAY [PPFIA4]	5.04
STDPNIVRKKERGREEKCVWKHGI [TAF7L]	3.31
QVQQVEVEATVKPELTAALRDIRA [PRPH]	4.02
LYPDLSCPEGLEELLSAPPPDLGA [SPSB2]	4.27
IAEDGTKEIESQGSIPGFLISSGM [TAF7L]	4.25
EEEEGEEEELIRIFQEQQKKWQQY [FAM9B]	4.02
IGELLAPAAPFDKKCGRENWTVAF [WSB1]	2.23
EYLIRLFQEWEAHRNLSQLPNFAF [TCF25]	2.32
LPDSPLRFDGLPAVLGFPGFSSGR [TRIM15]	2.87
GGGGGGGGTSSNNSEEEEDDDDEE [ANKRD17]	5.68
WMHTPEALSKHFIPYNAKFLGSTE [GULP1]	2.27
CGRSEVRPVAPRRPRDAVGQRGAQ [SMAD6]	4.37

---

Collected protein stability index values appear next to each entry.
- protocolNotes: protein stability index of a GFP-peptide fusion (GPS, HEK-293T) (PSI 1-6); higher = more stable
- conditionContext: treatment: DMSO; c terminus: a fixed tail appended

sequenceData	protein stability index
PNEAMVVSGFCRSPPVMVAGGRVF [FLOT1]	2.2
RIRSYLREVSSYPSTVGAEAQEEF [DFFB]	3.33
PILQEGMDEEKLKQLNCVEISALN [DLC1]	5.08
EKALASILLQDHIRDLDVVVVSVA [ATL3]	2.52
MAGTGLLALRTLPGPSWVRGSGPS [ALKBH7]	2.68
WEASSLGLVTAALHMVIVAAFTWA [KMT2E]	3.44
SGPQPRLPPCLLPLSPPTAPDRAT [TRIB3]	4.48
EEEDQHMKLSLGGSEMGLSSHLQS [KLHL13]	4.95
SSLFMDTEKSGKREFDVRQTPQVN [WEE1]	4.58
KEYDVARNTGAYTSSGLATASFRT [TEKT4]	3.6
TLCKADLEAQVESLKEELMCLKKN [KRT36]	3.51
HFHPTVIGESMYGDFEEAFDHLQN [TENT5C]	3.82
TYRSLLESEDCKLPCNPCATTNAS [KRT34]	3.9

---

protein stability index by entry:
- protocolNotes: protein stability index of a GFP-peptide fusion (GPS, HEK-293T) (PSI 1-6); higher = more stable
- conditionContext: treatment: MLN4924 1 uM, 8 h; c terminus: a fixed tail appended

sequenceData	protein stability index
SEEGSWAQTLAYGDMNHEWIGNEW [PPFIA4]	3.8
TSNGWGVTDCKHTEDVGVVCSDKR [LOXL2]	4.46
RLAELLLLETDAGPAASEGAEQPP [GADD45A]	3.6
KTMPKSVVGLHAASKDPREVREAR [EHMT1]	4.86
ATGDTALTYACENGHTDVADVLLQ [ANKRD17]	4.56
LGTKSCSSSCAVHDLIFWRDVKKT [RTN3]	2.09
IRERILGPSHPDTSYYIRYRGAVY [FEM1C]	2.1

---

- protocolNotes: protein stability index of a GFP-peptide fusion (GPS, HEK-293T) (PSI 1-6); higher = more stable
- conditionContext: treatment: DMSO; c terminus: a fixed tail appended

sequenceData	protein stability index
SLTDDKYDVAMNRAKDLVELDPEV [GOLPH3L]	5.37
QKLREESAARVVLTSLLACLPAGP [DUSP5]	2.15
RREVAKTVFCLVVIFALCWFPLHL [EDNRA]	2.93
VTVRVPTHEEGSYLFWEFATDNYD [ACBD3]	2.19
PVENIPEIILYWKHSTIFDVGENL [SLC25A25]	2.37
FVGDLSPEITTEDIKAAFAPFGRI [TIA1]	3.11
PKTNEDFEFLYNALEFWRQEELTR [IQUB]	2.63
EEFCEFVKSNTEQMREAFATAFSK [ZBED1]	3.76
GGKNCKKPAEYGYVSLGRLGAAKG [CEBPB]	3.64
YSKESIIFGASSVDFSLSGRLLFA [GNB5]	2.84
KRGFEVVYMTEPIDEYCVQQLKEF [HSP90AB1]	2.56
MTEWFMCAFSRTLPWSSVLRVWDM [TBC1D10A]	3.32
NIWVCYASYVVFRIIYMLLITIAT [SLC19A2]	3.41
VHRKSCSTGEAGTDGDHNVYPRPP [ZC2HC1C]	4.29
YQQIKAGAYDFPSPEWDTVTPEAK [CAMK2B]	3.89
GVPVQPVLIRYPNSLDTTSWAWRG [LPCAT4]	2.28
FGKDFRKGLLKKGACYGDDACFVA [PPTC7]	2.24
FQHHAKPNCFRKDPDINMHPFFFA [FADS1]	2.2
STLEESVVRICCIRSFGHFIARLQ [SMG5]	2.29
QICAQVSFFFPPVNLPISFFRKLL [NLN]	2.76
NRGNSAGGLQHRVTAKTAPDVLRT [PTPRD]	3.98
DANTWRLYGGMNYRRLGGGVGVIK [KLHL20]	2.63
MLLRKFAESKGTGREKPGPLDFEA [FCHO1]	2.84
GCQLDLRYADLEAVNRARRPLARP [RHOBTB1]	3.07
DSYYRLVIHRALDREQVSSYNITV [PCDHGA10]	2.87
LSTAASLGPSGLQNHGQHLILSRE [LCOR]	3.99
TPKAAWIREEGRCSSSDDDTDVDM [PBXIP1]	5.4
VTFRDVAVDFTQEEWGQLDPTQRI [ZNF8]	3.8
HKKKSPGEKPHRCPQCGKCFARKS [ZNF449]	3.86
IEVQPNFEVPYYNRGLILYRLGYF [TTC32]	3.17
VVENAEKILGYLNTNVLSRDLIPP [SLC6A17]	2.82
RIASRAIDNAADLLIFGKELSAIG [SNX8]	2.34
LISQCGKPVVNVSYRPAYDQGGPV [DUSP5]	2.61
QEAPLQDDSCLNNDIPHSIPLEQG [FAN1]	5.25
EQIGHILVSWLPRLNAYRGYCSNQ [NET1]	2.67
GIVVWNMDVERQETPEWLDSDSCQ [WDFY2]	3.3
YTFTDTFTEKLWPLFYPGIRAGRK [TRIM39]	2.69
TPCGPAQACMGGRCLHMDQLQDFN [ADAMTS4]	2.63
AAENEFVLLKKDVDAAYANKVELQ [KRT71]	4.7
VHNAMDNYECNLYTFLYLVCISTK [FEM1B]	2.82
APGADVKVHRARKTMPKSVVGLHA [EHMT1]	3.7
VVFPYTSKSCMRAVLEYLYTGMFT [RHOBTB2]	2.81
SSIPCSGSLDGRELSRQVRSSVEL [PPEF2]	4.3
QRKLKPPIVPKIAGDGDTSNFETY [PRKX]	4.38
STDTESNNEEQRSGLIYLTNHIAP [IKZF1]	4.63
RSSVSRVFDCLKDGMRNKETLEGR [MED27]	4.27
YRALLSGSNPPYLPFRDASFGNCT [CDC14A]	2.44
AGQVTALPVNSPMNKGDTEVMKCI [CHGA]	4.12
CSRQFPEFQERARKRIRTYLKSCR [NOL4L]	3.25
TFTEHPMKYTSEKFLEICKLSGFM [TPRG1]	2.35
EHQNKRSPLHAAAEAGHVDICHML [EHMT1]	3.98
RPHGIFGPRDPQLVPILIEAARNG [NSDHL]	2.91
PHRVLETRGHAISILFGFWTSFIC [SMIM2]	2.46
